Value source: patent US20250320213A1

- ASSAYED SYSTEM: STAT6 (Homo sapiens, UniProt P42226)
- Construct: stably transfected HaCaT keratinocyte cell line, which expresses NanoLuc luciferase reporter gene under the transcriptional control of the STAT6 responsive promoter; endogenous in cells; host or cells: HaCaT keratinocyte reporter cell line (stably transfected with a NanoLuc reporter)
- Sequence (P42226 1-847): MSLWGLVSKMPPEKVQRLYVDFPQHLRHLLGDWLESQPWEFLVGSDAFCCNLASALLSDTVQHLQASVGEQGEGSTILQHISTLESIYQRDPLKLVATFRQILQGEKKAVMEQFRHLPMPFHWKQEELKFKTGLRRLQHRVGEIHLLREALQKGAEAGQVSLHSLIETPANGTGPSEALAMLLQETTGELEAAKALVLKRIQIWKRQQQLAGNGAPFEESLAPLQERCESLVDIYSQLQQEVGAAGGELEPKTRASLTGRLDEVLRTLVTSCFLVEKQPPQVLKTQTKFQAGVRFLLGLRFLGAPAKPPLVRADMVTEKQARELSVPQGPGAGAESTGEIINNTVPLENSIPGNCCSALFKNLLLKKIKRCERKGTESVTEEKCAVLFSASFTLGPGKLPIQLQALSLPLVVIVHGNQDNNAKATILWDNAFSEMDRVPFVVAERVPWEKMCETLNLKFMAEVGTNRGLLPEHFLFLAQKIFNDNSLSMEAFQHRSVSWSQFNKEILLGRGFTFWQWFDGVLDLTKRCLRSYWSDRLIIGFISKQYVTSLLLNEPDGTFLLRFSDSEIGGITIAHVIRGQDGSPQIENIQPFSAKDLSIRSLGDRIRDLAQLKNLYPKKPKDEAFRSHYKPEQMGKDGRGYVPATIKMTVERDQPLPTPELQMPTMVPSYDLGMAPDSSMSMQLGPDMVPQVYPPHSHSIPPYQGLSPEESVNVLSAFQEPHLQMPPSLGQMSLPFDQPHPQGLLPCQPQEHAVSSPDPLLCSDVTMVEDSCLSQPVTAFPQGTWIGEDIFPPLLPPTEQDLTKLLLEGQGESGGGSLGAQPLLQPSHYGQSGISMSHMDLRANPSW
- PROCEDURE SUMMARY: STAT6 Reporter Luciferase Assay (IL-13 stimulated HaCaT keratinocyte NanoLuc reporter cells)
- Format: cell-based
- CONDITION PARAMETERS: STAT6 NanoLuc luciferase reporter, IL-13 stimulated HaCaT keratinocyte cells; read-out: Reporter EC50
Would you kindly list log10 EC50 for each of these compounds?
The base-10 logarithm of EC50, taken with EC50 in nM, is what appears here.

Examples from the recorded data:
CC(C)n1nc(C(=O)NCc2ccc(NC(=O)N(C)C)cc2)c2c1CCN(c1ncc(C(=O)N(C)C)cn1)C2; 0.95
CC(C)n1nc(C(=O)NCc2ccc(NC(=O)N(C)C)cc2)c2c1CCN(c1ccc(N3CC4(CC4)CC3=O)cn1)C2; 1.81
CCC1CN(c2ccc(C(=O)N(C)C)cn2)Cc2c(C(=O)NCc3ccc(NC(=O)N(C)C)cc3)n[nH]c21 (single isomer, unassigned) [Example 82]; 2.00

Lab note: each compound below needs its log10 EC50 filled in.
1. CN(C)C(=O)Nc1ccc(CNC(=O)c2nn(C)c3c2CC(c2ccc(C(=O)N(C)C)cc2)CC3)cc1 (racemic)
2. CC1Cc2c(c(C(=O)NCc3ccc(NC(=O)N(C)C)cc3)nn2C)CN1c1ccc(C(=O)N(C)C)cn1 (racemic)

Completion:
[1.84, 0.95]

Lab note: each compound below needs its log10 EC50 filled in.
1. CC(C)n1nc(C(=O)NCc2ccc(NC(=O)NCC3CC3)cc2)c2c1CCN(c1ccc(C(=O)N(C)C)cn1)C2
2. CCn1nc(C(=O)NCc2ccc(-c3ncc[nH]3)cc2)c2c1CCN(c1ccc(C(=O)N(C)C)cn1)C2
3. CC(C)n1nc(C(=O)NCc2ccc(NC(=O)N3CCC(CC#N)CC3)cc2)c2c1CCN(c1ccc(C(=O)N(C)C)cn1)C2
4. CNC(=O)c1ccc(CNC(=O)c2nn(C)c3c2CN(c2ccc(C(=O)N(C)C)cc2)CC3)cc1
5. CC(C)n1nc(C(=O)NCc2ccc(NC(=O)N3CCC4(CNCCO4)C3)cc2)c2c1CCN(c1ccc(C(=O)N(C)C)cn1)C2 (racemic)
6. CC(C)n1nc(C(=O)NCc2ccc(NC(=O)N3CCC(OCCO)CC3)cc2)c2c1CCN(c1ccc(C(=O)N(C)C)cn1)C2
7. CC(C)n1nc(C(=O)NCc2ccc(NC(=O)N(C)C)cc2)c2c1CCN(c1ccc(-c3ncnn3C)cn1)C2
8. CC(C1CC1)n1nc(C(=O)NCc2ccc(NC(=O)N(C)C)cc2)c2c1CCN(c1ccc(C(=O)N(C)C)cn1)C2 (single isomer, unassigned) [Example 87]

Completion:
[0.90, 1.52, 0.70, 2.25, 1.11, 1.04, 0.78, 1.18]
